Here, each record is paired with measured inhibition data.
Test: inhibitors of E-selectin induction by TNFa, primary screen, imaging, HUVEC, immunofluorescence, MLSMR starter and 10KST1 sets (AID 487);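 on inhibition: signal is fraction of cell area covered by stained E-selectin grains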
Conditions: HUVEC TNFalpha-induced E-selectin immunofluorescence imaging, at 2 µM; stronger effect = higher value
Value expressed in %; do not type the unit.

So for c1ccc(-c2ccc(-c3ccccn3)nn2)nc1 , the logged inhibition turned out to be -48.9

----------
Experiment: inhibitors of Sendai virus-induced IRF3 signaling, primary screen, TLR/RLR signaling modifier project, cell-based, Sendai virus stimulus, luciferase, 10K MLSCN set (AID 602276);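 further: firefly luciferase from ISG56 promoter only with Renilla not read in this screen; 0% = Sendai virus plus DMSO and 100% = medium plus DMSO without virus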
Details: HEK293 RL24 IRF3 luciferase reporter, at 10 µM, stronger effect = higher value
Items are presented alongside their recorded inhibition.
# number only, unit % dropped from output

Field: example entries. Status: answers known.
>  <compound>
CCCNS(=O)(=O)c1ccc(OCC(=O)NCc2ccco2)cc1

>  <recorded-number>
-6.02

$$$$
>  <compound>
CCOC(=O)c1[nH]nc(N)c1NC(=O)c1ccc(Cl)cc1Cl

>  <recorded-number>
-16.4

$$$$
>  <compound>
O=C1c2ccccc2S(=O)(=O)N1Cc1nnc(-c2ccccc2Br)o1

>  <recorded-number>
16.6

$$$$
>  <compound>
COc1ccc(N2C(=O)C(Cl)=C(N3CCCC3)C2=O)cc1

>  <recorded-number>
-5.83

$$$$
>  <compound>
Cc1cc(C(=O)NCc2cccnc2)n(-c2ccccc2)n1

>  <recorded-number>
-0.216

$$$$

inhibition measured on CCOC(=O)N1CCN(c2c(N3CCN(c4ccccc4OC)CC3)c(=O)c2=O)CC1 = 3.99

CSC1=N/C(=C\C=C\c2cccs2)C(=O)S1 yielded inhibition of 10.5

O=C(CS(=O)CC(=O)Nc1cccc2c1CCCC2)Nc1ccc(F)cc1 (stereo unspecified) has a reported inhibition of 12.7

The reported value for COc1ccc(S(=O)(=O)N2CCC(C(=O)Nc3c(F)cccc3F)CC2)cc1 in terms of inhibition is -10.2

# inhibition (compound: Cc1cc2cc(CN(CCCN3CCOCC3)C(=O)NC3CCCCC3)c(=O)[nH]c2cc1C ) is 10.2

Sample CCCC(=O)Nc1nnc(CC(=O)N2CCCC2)s1 ; inhibition observed: 14.1

Per the records, this compound ( CCOc1ccc(C2C(C#N)=C(N)Oc3cc(C)n(Cc4ccco4)c(=O)c32)cc1OC (stereo unspecified) ) has inhibition equal to 7.22

Entry under test: CCC1(NC(C)=O)CC2CC1CC2NC(C)=O (stereo unspecified) . Its inhibition was 1.63

Just so you know, measured inhibition for O=C(C1CCN(C2CC(=O)N(c3ccc(F)cc3)C2=O)CC1)N1CCOCC1 (stereo unspecified) came out at 7.33

So, Cc1[nH]nc2c1C(=O)CC(C)(C)C2 ? Its inhibition was -3.34

Short answer for CCOc1ccc2[nH]c(=O)c(C(c3nnnn3Cc3ccco3)N3CCC(C)CC3)cc2c1 (stereo unspecified) : inhibition was 13

----------
Target: Alpha-2C adrenergic receptor (Homo sapiens) (UniProt P18825)
Sequence (P18825 whole entry, looked up): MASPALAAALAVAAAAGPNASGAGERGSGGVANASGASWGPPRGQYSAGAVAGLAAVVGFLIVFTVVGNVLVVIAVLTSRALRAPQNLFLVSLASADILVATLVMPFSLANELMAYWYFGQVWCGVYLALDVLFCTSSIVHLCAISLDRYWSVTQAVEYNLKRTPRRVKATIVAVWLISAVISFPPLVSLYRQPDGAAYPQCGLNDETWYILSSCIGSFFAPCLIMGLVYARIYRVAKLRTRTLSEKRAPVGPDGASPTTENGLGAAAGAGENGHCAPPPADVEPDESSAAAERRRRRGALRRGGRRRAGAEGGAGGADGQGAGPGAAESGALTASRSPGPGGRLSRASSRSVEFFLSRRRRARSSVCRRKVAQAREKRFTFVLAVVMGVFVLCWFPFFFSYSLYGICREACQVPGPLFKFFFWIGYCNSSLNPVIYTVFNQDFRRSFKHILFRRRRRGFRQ
Assay: modulators of alpha2C/GIRK thallium flux, primary screen, cell-based, HEK293 alpha2C/GIRK1/2 (AID 624);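 further: slope of fluorescence ratio to pre-addition baseline per second over 15 to 24 s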
Details: thallium flux BTC fluorescence, at 10 µM, actives lie on both sides
Active and inactive are the calls of the source.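 Rule for the calls: active = fluorescence slope after compound addition differing from the mean of all screened samples at 99.7% confidence, in either direction; inactive = the rest.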
Below is a list of entries, each paired with its recorded slope value.

>  <molecule>
CC1=C(C(=O)N2CCCCC2)C(c2cccs2)C2=C(CCCC2=O)N1 (stereo not given)

>  <slope>
0.0061 (inactive)

$$$$
>  <molecule>
COCCn1c(C)cc(C(=O)COC(=O)CCN2C(=O)c3ccccc3C2=O)c1C

>  <slope>
0.00506 (inactive)

$$$$
>  <molecule>
CN(C)S(=O)(=O)NC(c1ccccc1)c1ccccc1

>  <slope>
0.00605 (inactive)

$$$$
>  <molecule>
CCOc1ccc(OCC)c(NC(=O)CCCN2C(=O)c3cccnc3C2=O)c1

>  <slope>
0.00505 (inactive)

$$$$

Now look at this entry.
Given item CNC(=O)c1nnn(Cc2ccccc2)c1NC(C)=O , the value recorded as its slope is 0.00612 (inactive)

----------
Target: Alpha-2C adrenergic receptor (Homo sapiens) (UniProt P18825)
Assay: modulators of alpha2C/GIRK thallium flux, primary screen, cell-based, HEK293 alpha2C/GIRK1/2 (AID 624);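 further: slope of fluorescence ratio to pre-addition baseline per second over 15 to 24 s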
Conditions: thallium flux BTC fluorescence, at 10 µM, actives lie on both sides
observed-property: slope
Could you respond with only the numeric value?

Before answering, review these 3 worked examples.
>  <compound>
CCN(CC)C(=O)C1CCCN(Cc2ccc(N(C)C)cc2)C1 (centres undefined)

>  <observed-property>
slope

>  <recorded-number>
0.00605

$$$$
>  <compound>
Cn1c(=O)c2c(nc(NCCNC(=O)c3ccco3)n2Cc2ccccc2Cl)n(C)c1=O

>  <observed-property>
slope

>  <recorded-number>
0.00598

$$$$
>  <compound>
COc1ccc(C)cc1-n1nnnc1SCC(=O)Nc1cc(C)on1

>  <observed-property>
slope

>  <recorded-number>
0.00592

$$$$

Lab note: next compound to report on.
CC1CCc2c(sc(N)c2C(N)=O)C1 (centres undefined) has a reported slope of 0.00501

----------
Assay: inhibitors of TNFa-induced NFkB p65 translocation, primary screen, imaging, HUVEC, MLSMR starter and 10KST1 sets (AID 438);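 further: compound added about 3h40 before a 20 min TNFalpha stimulation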
Details: HUVEC TNFa-induced p65 nuclear translocation; measured here: nuclei count (cytotoxicity indicator), at 2.08 µM
Quick list: cell count per entry.
Lab note: jot down the number only; don't add units.

// worked examples, cell count included
>  <compound>
Cc1cccc(NC(=O)c2cc(N3CCOCC3)nc3ccccc23)c1

>  <cell count>
620

$$$$
>  <compound>
Cc1ccc(N(CN2C(=O)C3CC=CCC3C2=O)C(=O)c2ccco2)cc1Cl (centres undefined)

>  <cell count>
419

$$$$
>  <compound>
Cc1ccc2cc(C(c3nnnn3CC3CCCO3)N3CCCC4(CCCCC4)C3)c(=O)[nH]c2c1 (centres undefined)

>  <cell count>
715

$$$$
>  <compound>
O=C(c1ccc(=O)oc1)N1CCN(C(c2ccccc2)c2ccccc2)CC1

>  <cell count>
630

$$$$

Consider COc1cccc(-c2cc(C(=O)N3CCc4ccccc4C3)no2)c1 . Its measured cell count is 550

Sample CC(C)OC(=O)c1cc(=O)[nH]c2ccccc12 ; cell count observed: 267

Measured cell count, CCC1Oc2ccc(C)cc2N(CC(=O)NCCCN2CCCCC2CC)C1=O (centres undefined) : 651

----------
Assay: inhibitors of TNFa-induced NFkB p65 translocation, primary screen, imaging, HUVEC, MLSMR starter and 10KST1 sets (AID 438);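 further: compound added about 3h40 before a 20 min TNFalpha stimulation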
Conditions: HUVEC TNFa-induced p65 nuclear translocation; measured here: nuclei count (cytotoxicity indicator), at 2.08 µM
observed-property: cell count
// print number alone

>  <compound>
C=C(C)CSc1nc(N)c2c3c(sc2n1)CCC3

>  <cell count>
394

$$$$
>  <compound>
COc1cccc(C2CC(c3ccccc3Cl)n3nc(N)nc3N2)c1 (centres undefined)

>  <cell count>
399

$$$$
>  <compound>
C=CCN1C(=O)C2(/C(=C(\O)c3ccc4c(c3)OCCO4)C(=O)C(=O)N2CCCOC)c2ccccc21 (centres undefined)

>  <cell count>
390

$$$$

Alright, here's another compound for you.
So for Cc1nnc(SCc2nc3ccccc3s2)n1-c1ccccc1 , the logged cell count turned out to be 394

----------
Assay: inhibitors of E-selectin induction by TNFa, primary screen, imaging, HUVEC, immunofluorescence, MLSMR starter and 10KST1 sets (AID 487);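 on nuclei count: 100% = median nuclei count of all wells on the same plate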
Conditions: HUVEC TNFalpha-induced E-selectin immunofluorescence imaging, at 2 µM; measured here: cell number, toxicity
Measured nuclei count, listed per entry for reference.
Field: numeric (%). Do not append units.

>  <compound>
Cc1cc(=O)oc2c(CN3CCC(C)CC3)c(O)c(Cl)cc12

>  <recorded-number>
171

$$$$
>  <compound>
Nc1c2c(nc3ccccc13)N(C1CCCCC1)CC2

>  <recorded-number>
98.7

$$$$
>  <compound>
CC1=C(C(=O)Nc2ccccc2C)C2(CCCC2)C(C(N)=O)C(=O)N1 (configuration not stated)

>  <recorded-number>
106

$$$$
>  <compound>
COc1ccc(OC)c(-c2cc(C(=O)NCc3cccs3)no2)c1

>  <recorded-number>
124

$$$$
>  <compound>
COc1cccc(CNc2nc3nc(C)c(Cl)c(C)n3n2)c1

>  <recorded-number>
83.7

$$$$
>  <compound>
COc1ccc(C2C(C#N)=C(C)NC3=C2C(=O)c2ccccc23)cc1 (configuration not stated)

>  <recorded-number>
145

$$$$
>  <compound>
O=C(O)CCCC(=O)N1CCN(C(c2ccccc2)c2ccccc2)CC1

>  <recorded-number>
93.4

$$$$
>  <compound>
Cn1c(=O)c2c(nc(CN3CCN(Cc4ccccc4)CC3)n2Cc2cccc(Cl)c2)n(C)c1=O

>  <recorded-number>
98

$$$$
>  <compound>
CC1(C)Cc2c(sc3nc(SCC(=O)NCc4ccco4)n(-c4ccccc4)c(=O)c23)CS1

>  <recorded-number>
112

$$$$
>  <compound>
COc1ccc(C(=O)Nc2ccccc2C(=O)NCCN2CCOCC2)cc1

>  <recorded-number>
103

$$$$

Documented nuclei count of O=C(NCc1ccc2c(c1)OCO2)c1cccc2c1C(=O)N(C1CCCCC1)C2 : 115

What the record says about CCOC(=O)N1CCN(C(=O)CSc2nnc(-c3cccc(Cl)c3)o2)CC1 : nuclei count is 96
